Recorded values, source paper PMC11817610.

# test protocol: physchem
# details: pH 7.4
metric: logD
No unit in the answer, only the number.

# molecule O=C(Cc1ccc(Cl)c(Cl)c1)N1CCN(Cc2ccccc2)[C@@H]2C[C@@H](O)C[C@H](N3CCCC3)[C@H]21 (racemic) ; its logD = 1.72

* * *

# tested system: σ1 receptor (Cavia porcellus)
# Sequence (Q60492 whole entry): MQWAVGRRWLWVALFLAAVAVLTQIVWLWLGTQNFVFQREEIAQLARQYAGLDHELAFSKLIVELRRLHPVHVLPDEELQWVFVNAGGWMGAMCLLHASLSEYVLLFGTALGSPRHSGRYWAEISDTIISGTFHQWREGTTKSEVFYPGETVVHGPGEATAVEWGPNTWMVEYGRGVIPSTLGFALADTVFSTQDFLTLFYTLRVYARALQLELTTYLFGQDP
# test protocol: σ1 receptor radioligand binding assay with [3H]-(+)-pentazocine, guinea pig brain membranes
# details: read-out: Ki ± SEM σ1 Receptor
Please go through the items and note down their Ki.
Numbers only; they are read as µM.

# compound CC(C)(C)[Si](C)(C)O[C@@H]1C[C@@H]2[C@@H]([C@@H](N3CCCC3)C1)N(C(=O)Cc1ccc(Cl)c(Cl)c1)CCN2Cc1ccccc1 (racemic) ; its Ki = 0.487

# compound O=C(Cc1ccc(Cl)c(Cl)c1)N1CCN(Cc2ccccc2)[C@@H]2C[C@@H](O)C[C@H](N3CCCC3)[C@H]21 (racemic) ; its Ki = 7.9

* * *

# tested system: human serum albumin (Homo sapiens)
# Sequence (P02768 25-609): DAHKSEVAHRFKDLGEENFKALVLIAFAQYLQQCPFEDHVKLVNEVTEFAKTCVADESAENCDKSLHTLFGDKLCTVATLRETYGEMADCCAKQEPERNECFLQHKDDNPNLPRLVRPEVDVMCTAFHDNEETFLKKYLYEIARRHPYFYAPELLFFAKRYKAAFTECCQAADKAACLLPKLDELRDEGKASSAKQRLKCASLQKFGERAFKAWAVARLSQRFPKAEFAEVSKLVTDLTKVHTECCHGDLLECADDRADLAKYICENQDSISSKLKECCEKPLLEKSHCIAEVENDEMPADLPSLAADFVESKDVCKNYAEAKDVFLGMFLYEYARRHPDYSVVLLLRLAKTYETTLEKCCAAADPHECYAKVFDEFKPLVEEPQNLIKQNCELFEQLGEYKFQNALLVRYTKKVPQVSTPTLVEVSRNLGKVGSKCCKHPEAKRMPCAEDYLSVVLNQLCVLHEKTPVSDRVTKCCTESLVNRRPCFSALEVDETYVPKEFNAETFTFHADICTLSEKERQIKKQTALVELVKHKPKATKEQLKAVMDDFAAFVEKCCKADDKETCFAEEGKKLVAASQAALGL
# test protocol: in vitro
# details: plasma
metric: fraction unbound
No unit in the answer, only the number.

# molecule O=C(Cc1ccc(Cl)c(Cl)c1)N1CCN(Cc2ccccc2)[C@@H]2C[C@@H](O)C[C@H](N3CCCC3)[C@H]21 (racemic) [compound 14] ; its fraction unbound = 0.075
